assay: pharmacokinetic properties test in rats; assay type: in vivo; settings: SD rat, 10 mg/kg oral gavage, single, fasted, plasma
Each entry below carries its recorded half-life.
I only need the number, in h, no unit after it.

Entry `O=C([C@H](CO)c1ccc(F)cc1F)N1CC(=C2CN(S(=O)(=O)c3ccccn3)C2)C1` needs its half-life filled in; supply it.
3.43

Consider the record given below.
Entry `N#Cc1ccc(S(=O)(=O)N2CC(=C3CN(C(=O)[C@H](CO)c4ccccc4)C3)C2)cc1` needs its half-life filled in; supply it.
1.53

====

Each entry below carries its recorded clearance.
test: pharmacokinetic properties test in dogs; format: in vivo; details: dog; Beagle, 2 mg/kg intravenous injection, single, plasma
I only need the number, in mL/min/kg, no unit after it.

Entry `N#Cc1ccc(S(=O)(=O)N2CC(=C3CN(C(=O)[C@H](CO)c4ccccc4)C3)C2)cc1` needs its clearance filled in; supply it.
3.72

Consider the record given below.
Entry `O=C([C@H](CO)c1ccc(F)cc1F)N1CC(=C2CN(S(=O)(=O)c3ccccn3)C2)C1` needs its clearance filled in; supply it.
11.2
